As shown below, each of these sequences has a reported Kd value.
target.under.test: HLA-B*53:01
assay.info: IEDB peptide-MHC binding, purified MHC/competitive/radioactivity; filed as Kd, often an IC50 or EC50 that approximates it; bounds were set here for any values at or beyond the usual limits of such assays
conditions.used: source organism: Dengue virus 3 Martinique/1243/1999
property: Kd (nM)

>>> number("EPETPNMDVI")
10800
>>> number("MALKLITQF")
22.4
>>> number("IASAIVLEF")
7.65

###

target.under.test: HLA-A*69:01
assay.info: IEDB peptide-MHC binding, purified MHC/direct/fluorescence; filed as Kd, often an IC50 or EC50 that approximates it; bounds were set here for any values at or beyond the usual limits of such assays
conditions.used: source organism: Ebola virus - Gabon (1994-1997)
property: Kd

>>> result("AKATGRYNL")
"≥ 20 µM"

###

target.under.test: HLA-A*03:01
assay.info: IEDB peptide-MHC binding, purified MHC/competitive/fluorescence; filed as Kd, often an IC50 or EC50 that approximates it; bounds were set here for any values at or beyond the usual limits of such assays
conditions.used: source organism: Vibrio vulnificus YJ016
property: Kd

>>> result("VTFGARASF")
"≥ 20 µM"

###

target.under.test: HLA-A*31:01
assay.info: IEDB peptide-MHC binding, purified MHC/competitive/fluorescence; filed as Kd, often an IC50 or EC50 that approximates it; bounds were set here for any values at or beyond the usual limits of such assays
conditions.used: source organism: Mycobacterium tuberculosis H37Ra
pKd: −log10 of the molar value.
property: pKd

>>> number("GVALRSTYR")
8.03

###

target.under.test: HLA-A*26:01
assay.info: IEDB peptide-MHC binding, purified MHC/competitive/fluorescence; filed as Kd, often an IC50 or EC50 that approximates it; bounds were set here for any values at or beyond the usual limits of such assays
conditions.used: source organism: Giardia lamblia ATCC 50803
pKd: −log10 of the molar value.
property: pKd

>>> result("LLDDGWAGE")
"≤ 4.70"

###

target.under.test: HLA-A*02:01
assay.info: IEDB peptide-MHC binding, purified MHC/competitive/fluorescence; filed as Kd, often an IC50 or EC50 that approximates it; bounds were set here for any values at or beyond the usual limits of such assays
conditions.used: source organism: Toxoplasma gondii
pKd: −log10 of the molar value.
property: pKd

>>> result("VSSHKGWAK")
"≤ 4.70"

###

target.under.test: HLA-B*18:01
assay.info: IEDB peptide-MHC binding, purified MHC/competitive/radioactivity; filed as Kd, often an IC50 or EC50 that approximates it; bounds were set here for any values at or beyond the usual limits of such assays
conditions.used: source organism: Mammarenavirus juninense
pKd: −log10 of the molar value.
property: pKd

>>> number("DETKKQVNLM")
5.05

###

target.under.test: HLA-A*02:06
assay.info: IEDB peptide-MHC binding, purified MHC/competitive/radioactivity; filed as Kd, often an IC50 or EC50 that approximates it; bounds were set here for any values at or beyond the usual limits of such assays
conditions.used: source organism: Hepatitis C virus (isolate 1)
property: Kd

>>> result("HSKKKCDEL")
"≥ 77.1 µM"

###

target.under.test: HLA-A*11:01
assay.info: IEDB peptide-MHC binding, purified MHC/competitive/fluorescence; bounds were set here for any values at or beyond the usual limits of such assays
conditions.used: source organism: Homo sapiens
pIC50: −log10 of the molar value.
property: pIC50

>>> result("LVTMGTGTFGR")
6.41
>>> result("ELFARSSDPR")
"≤ 4.70"
>>> result("RQSSGSSSSGF")
"≤ 4.70"
